# subject_of_test: K63 Ub2
# assay_procedure: fluorescence competition with 5 nM Atto532-Ub(S20C) and 600 nM tSR
parameter: Ki (µM)
# value in µM; strip the unit string

What value of measured Ki is listed for tSR (designed binder) MPSSHHHHHHSSGLVPRGSHMTEEEQIAYAMQMSLREAGGGSDLLCKKGCGYYGNPAWQGFCSKCWREEAHKCAAERAAAE ?
4.3
